// values below are reported EC50
- Target: human EDG8 (S1PR5) receptor (Homo sapiens)
- Construct: carries the transgenes human EDG8 (S1PR5) receptor (Acession number NP_110387.1)
- Sequence (Q9H228 whole entry): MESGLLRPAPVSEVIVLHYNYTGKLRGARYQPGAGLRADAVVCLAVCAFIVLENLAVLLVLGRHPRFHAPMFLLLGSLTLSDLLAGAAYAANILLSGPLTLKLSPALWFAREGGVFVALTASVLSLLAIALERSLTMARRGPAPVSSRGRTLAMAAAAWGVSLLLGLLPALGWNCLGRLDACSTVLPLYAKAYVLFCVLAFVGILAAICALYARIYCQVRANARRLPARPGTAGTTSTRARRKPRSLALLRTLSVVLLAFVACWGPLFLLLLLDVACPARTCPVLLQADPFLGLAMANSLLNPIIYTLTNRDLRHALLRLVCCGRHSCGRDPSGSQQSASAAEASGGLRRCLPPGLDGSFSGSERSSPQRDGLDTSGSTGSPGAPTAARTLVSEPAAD
- Protocol notes: Aequorin assay, agonist potency, CHO-A21-EDG8#12 cells
- Applied conditions: agonist mode, aequorin luminescence; read-out: S1P5 EC50 range #

Take a look at these entries with their results.
| Compound | Quantity | Observed |
| --- | --- | --- |
| O=C(O)C1(CN2CC3(Cc4ccc(-c5ccc(OCc6ccccc6)cc5)cc4C3)C2)CC1 | EC50 | 100 to 1000 nM |
| Cc1ccccc1CCOc1ccc2c(c1)CC1(C2)CN(CC2(C(=O)O)CC2)C1 | EC50 | 1000 to 10000 nM |
| COc1cccc(F)c1COc1ccc2c(c1)CC1(C2)CN(CC(=O)O)C1 | EC50 | 100 to 1000 nM |

If you can, please state the reported EC50 value of "O=C(O)[C@H]1C[C@@H](N2CC3(Cc4ccc(OCc5cc(Cl)ccc5Cl)cc4C3)C2)C1" .
100 to 1000 nM

For the compound "Cc1cccc(F)c1COc1ccc2c(c1)CC1(C2)CN(CC2(C(=O)O)CC2)C1" , what EC50 is on record?
100 to 1000 nM

Name the recorded EC50 for O=C(O)C1CC(N2CC3(Cc4ccc(OCc5c(F)cccc5C5CC5)cc4C3)C2)C1 (stereo not shown) .
≤ 10 nM

What value of measured EC50 is listed for CC1CCC(C#Cc2ccc3c(c2)CC2(C3)CN(CC3(C(=O)O)CC3)C2)CC1 (mixture of isomers) ?
≤ 10 nM

Requested read-out: EC50. Entry: "O=C(O)C1(CN2CC3(Cc4ccc(OCCc5c[nH]c6ccccc56)cc4C3)C2)CC1"
1000 to 10000 nM

GET /values?readout=EC50&item= O=C(O)CN1CC2(Cc3ccc(OC4CCc5cccc(Cl)c54)cc3C2)C1 (stereo not shown)
≤ 10 nM

Which EC50 is listed for O=C(O)C1CC(N2CC3(Cc4ccc(OCc5c(Cl)cccc5C5CC5)cc4C3)C2)C1 (stereo not shown) ?
≤ 10 nM
